target: human NPY Y5 receptor (Homo sapiens)
Sequence (Q15761 whole entry): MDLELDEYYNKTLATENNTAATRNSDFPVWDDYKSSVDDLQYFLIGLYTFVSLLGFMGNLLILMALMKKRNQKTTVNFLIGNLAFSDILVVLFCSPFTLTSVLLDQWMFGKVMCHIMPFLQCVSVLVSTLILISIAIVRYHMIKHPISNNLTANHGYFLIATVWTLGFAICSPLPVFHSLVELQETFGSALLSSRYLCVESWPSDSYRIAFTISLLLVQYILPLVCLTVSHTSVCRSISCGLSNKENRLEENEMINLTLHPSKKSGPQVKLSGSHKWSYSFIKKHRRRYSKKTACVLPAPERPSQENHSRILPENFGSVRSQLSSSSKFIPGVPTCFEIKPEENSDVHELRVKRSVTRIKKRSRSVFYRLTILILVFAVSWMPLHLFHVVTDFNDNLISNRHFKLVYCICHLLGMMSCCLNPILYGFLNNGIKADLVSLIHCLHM
pIC50: −log10 of the molar value.
READOUT: pIC50

COc1ccc(-c2cc(NC(=O)C3Cc4cc5ccccc5cc4C3)n[nH]2)cc1OC [Example 30]: 8.60
